Test system: 379773-124-R-J2-PDC complex spheroids, viability % test/control
Test: Anticancer human tumor 379773-124-R-J2-PDC patient-derived endometrial carcinoma cell line growth inhibition [CLK]; active means viability on the fitted dose curve at most 10% of control; inactive means the rest
Conditions: second compound 10 µM; first compound 0.316 µM
Valid outcomes are listed here; reply with one: active, inactive

## Task For CC(=O)O[C@H]1C(=O)[C@@]2(C)[C@H]([C@H](OC(=O)c3ccccc3)[C@]3(O)C[C@H](OC(=O)[C@H](O)[C@@H](NC(=O)c4ccccc4)c4ccccc4)C(C)=C1C3(C)C)[C@]1(OC(C)=O)CO[C@@H]1C[C@@H]2O + CN1CCN(c2cc(C(=O)Nc3cc4cc(-c5cnn(C)c5)ccc4cn3)ccn2)CC1 , which call appears in the assay record?
## Result active

## Task For CC1(C)CCC(CN2CCN(c3ccc(C(=O)NS(=O)(=O)c4ccc(NCC5CCOCC5)c([N+](=O)[O-])c4)c(Oc4cnc5[nH]ccc5c4)c3)CC2)=C(c2ccc(Cl)cc2)C1 + CNC(=O)c1ccc(Nc2nc(OC3CCCC3)c3c(-c4ccc5nc(C)oc5c4)c[nH]c3n2)c(OC)c1 , which call appears in the assay record?
## Result inactive

## Task For C=CC(=O)N1CCN(c2nc(=O)n(-c3c(C)ccnc3C(C)C)c3nc(-c4c(O)cccc4F)c(F)cc23)C(C)C1 (centres undefined) + CNC(=O)c1ccc(Nc2nc(OC3CCCC3)c3c(-c4ccc5nc(C)oc5c4)c[nH]c3n2)c(OC)c1 , which call appears in the assay record?
## Result inactive

## Task For COc1cccc2c1C(=O)c1c(O)c3c(c(O)c1C2=O)CC(O)(C(=O)CO)CC3OC1CC(N)C(O)C(C)O1 (centres undefined) + CNC(=O)c1ccc(Nc2nc(OC3CCCC3)c3c(-c4ccc5nc(C)oc5c4)c[nH]c3n2)c(OC)c1 , which call appears in the assay record?
## Result active

## Task For CC(CO)NC(=O)c1cc(-c2ccc(Cl)cc2)nn(-c2cnn(C)c2)c1=O (centres undefined) + CNC(=O)c1ccc(Nc2nc(OC3CCCC3)c3c(-c4ccc5nc(C)oc5c4)c[nH]c3n2)c(OC)c1 , which call appears in the assay record?
## Result inactive

###

Tested on: 379773-124-R-J2-PDC complex spheroids, viability % test/control
Assay: Anticancer human tumor 379773-124-R-J2-PDC cell line growth inhibition [CLK]; active = viability on the fitted dose curve at most 10% of control; inactive = the rest;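 further: compound exposure lasted seven days before the viability readout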
Conditions: second compound 0.0316 µM; first compound 1 µM
Valid outcomes are listed here; reply with one: active, inactive

Example entries and their recorded answers appear below.
molecule="COc1cccc2c1C(=O)c1c(O)c3c(c(O)c1C2=O)CC(O)(C(=O)CO)CC3OC1CC(N)C(O)C(C)O1 (centres undefined) + CN1CCN(c2cc(C(=O)Nc3cc4cc(-c5cnn(C)c5)ccc4cn3)ccn2)CC1" assigned_class=active
molecule="CCc1c2c(nc3ccc(O)cc13)-c1cc3c(c(=O)n1C2)COC(=O)[C@]3(O)CC + CN1CCN(c2cc(C(=O)Nc3cc4cc(-c5cnn(C)c5)ccc4cn3)ccn2)CC1" assigned_class=active
molecule="CCCS(=O)(=O)Nc1ccc(F)c(C(=O)c2c[nH]c3ncc(-c4ccc(Cl)cc4)cc23)c1F + CNC(=O)c1ccc(Nc2nc(OC3CCCC3)c3c(-c4ccc5nc(C)oc5c4)c[nH]c3n2)c(OC)c1" assigned_class=inactive

Now look at this entry.
## Task For CC1(C)CCC(CN2CCN(c3ccc(C(=O)NS(=O)(=O)c4ccc(NCC5CCOCC5)c([N+](=O)[O-])c4)c(Oc4cnc5[nH]ccc5c4)c3)CC2)=C(c2ccc(Cl)cc2)C1 + CNC(=O)c1ccc(Nc2nc(OC3CCCC3)c3c(-c4ccc5nc(C)oc5c4)c[nH]c3n2)c(OC)c1 , which call appears in the assay record?
## Result inactive

###

Listed below: viability, T/C values for each entry.
Tested on: 379773-124-R-J2-PDC complex spheroids, viability % test/control
Assay: Anticancer human tumor 379773-124-R-J2-PDC cell line growth inhibition [CLK];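 further: compound exposure lasted seven days before the viability readout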;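 on viability, T/C: 100% = DMSO vehicle control wells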
Details: second compound 0.1 µM; first compound 0.0316 µM; stronger effect = lower value
Provide only the numeric value, understood in %.

Reference set, count: 4
compound="CCCS(=O)(=O)Nc1ccc(F)c(C(=O)c2c[nH]c3ncc(-c4ccc(Cl)cc4)cc23)c1F + CN1CCN(c2cc(C(=O)Nc3cc4cc(-c5cnn(C)c5)ccc4cn3)ccn2)CC1" endpoint_result=83.6
compound="CC(=O)O[C@H]1C(=O)[C@@]2(C)[C@H]([C@H](OC(=O)c3ccccc3)[C@]3(O)C[C@H](OC(=O)[C@H](O)[C@@H](NC(=O)c4ccccc4)c4ccccc4)C(C)=C1C3(C)C)[C@]1(OC(C)=O)CO[C@@H]1C[C@@H]2O + CN1CCN(c2cc(C(=O)Nc3cc4cc(-c5cnn(C)c5)ccc4cn3)ccn2)CC1" endpoint_result=5.82
compound="COc1ccc([C@@H](O)c2cc(-c3ncnc4cc(N5CCOCC5)ccc34)c(F)cc2Cl)nn1 + CN1CCN(c2cc(C(=O)Nc3cc4cc(-c5cnn(C)c5)ccc4cn3)ccn2)CC1" endpoint_result=70.2
compound="CCN1CCN(Cc2ccc(Nc3ncc(F)c(-c4cc(F)c5nc(C)n(C(C)C)c5c4)n3)nc2)CC1 + CNC(=O)c1ccc(Nc2nc(OC3CCCC3)c3c(-c4ccc5nc(C)oc5c4)c[nH]c3n2)c(OC)c1" endpoint_result=40.5

## Task # returns recorded viability, T/C (system: 379773-124-R-J2-PDC complex spheroids, viability % test/control) for O=c1[nH]cc(F)c(=O)[nH]1 + CN1CCN(c2cc(C(=O)Nc3cc4cc(-c5cnn(C)c5)ccc4cn3)ccn2)CC1
## Result 82

###

Test system: 379773-124-R-J2-PDC complex spheroids, viability % test/control
Assay: Anticancer human tumor 379773-124-R-J2-PDC cell line growth inhibition [CLK]; active = viability on the fitted dose curve at most 10% of control; inactive = the rest;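 further: compound exposure lasted seven days before the viability readout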
Conditions: second compound 0.316 µM; first compound 0.1 µM
Valid outcomes are listed here; reply with one: 1.0 for active, 0.0 for inactive

## Task For COC1C=CCC(C)C(C)S(=O)(=O)NC(=O)c2ccc3c(c2)N(CC2CCC21)CC1(CCCc2cc(Cl)ccc21)CO3 (stereo unspecified) + CNC(=O)c1ccc(Nc2nc(OC3CCCC3)c3c(-c4ccc5nc(C)oc5c4)c[nH]c3n2)c(OC)c1 , which call appears in the assay record?
## Result 0.0

## Task For CC1COCCN1c1cc(C2(S(C)(=N)=O)CC2)nc(-c2ccnc3[nH]ccc23)n1 (stereo unspecified) + CNC(=O)c1ccc(Nc2nc(OC3CCCC3)c3c(-c4ccc5nc(C)oc5c4)c[nH]c3n2)c(OC)c1 , which call appears in the assay record?
## Result 0.0

## Task For C=C(F)C(=O)N1CCN(c2nc(OCC3CCCN3C)nc3c2CCN(c2cccc4cccc(Cl)c24)C3)CC1CC#N (stereo unspecified) + CNC(=O)c1ccc(Nc2nc(OC3CCCC3)c3c(-c4ccc5nc(C)oc5c4)c[nH]c3n2)c(OC)c1 , which call appears in the assay record?
## Result 0.0

## Task For COc1cccc2c1C(=O)c1c(O)c3c(c(O)c1C2=O)CC(O)(C(=O)CO)CC3OC1CC(N)C(O)C(C)O1 (stereo unspecified) + CN1CCN(c2cc(C(=O)Nc3cc4cc(-c5cnn(C)c5)ccc4cn3)ccn2)CC1 , which call appears in the assay record?
## Result 1.0

## Task For Cn1ncnc1[C@H]1c2n[nH]c(=O)c3cc(F)cc(c23)N[C@@H]1c1ccc(F)cc1 + CNC(=O)c1ccc(Nc2nc(OC3CCCC3)c3c(-c4ccc5nc(C)oc5c4)c[nH]c3n2)c(OC)c1 , which call appears in the assay record?
## Result 1.0

###

Tested on: 379773-124-R-J2-PDC complex spheroids, viability % test/control
Experiment: Anticancer human tumor 379773-124-R-J2-PDC cell line growth inhibition [CLK];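 further: compound exposure lasted seven days before the viability readout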
Details: curve of first compound; second compound 0.1 µM
MEASUREMENT_KIND: IC50

Reference set, count: 2
molecule="COc1cccc2c1C(=O)c1c(O)c3c(c(O)c1C2=O)CC(O)(C(=O)CO)CC3OC1CC(N)C(O)C(C)O1 (stereo not drawn) + CN1CCN(c2cc(C(=O)Nc3cc4cc(-c5cnn(C)c5)ccc4cn3)ccn2)CC1" endpoint_result="< 31.6 nM"
molecule="CCCS(=O)(=O)Nc1ccc(F)c(C(=O)c2c[nH]c3ncc(-c4ccc(Cl)cc4)cc23)c1F + CN1CCN(c2cc(C(=O)Nc3cc4cc(-c5cnn(C)c5)ccc4cn3)ccn2)CC1" endpoint_result="> 10000 nM"

## Task Fill in the blank: the reported IC50 of CCN1CCN(Cc2ccc(Nc3ncc(F)c(-c4cc(F)c5nc(C)n(C(C)C)c5c4)n3)nc2)CC1 + CNC(=O)c1ccc(Nc2nc(OC3CCCC3)c3c(-c4ccc5nc(C)oc5c4)c[nH]c3n2)c(OC)c1 is ____.
## Result < 3.16 nM

###

Listed below: viability, T/C values for each entry.
Tested on: 379773-124-R-J2-PDC complex spheroids, viability % test/control
Experiment: Anticancer human tumor 379773-124-R-J2-PDC cell line growth inhibition [CLK];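 further: compound exposure lasted seven days before the viability readout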;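 on viability, T/C: 100% = DMSO vehicle control wells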
Settings: second compound 0.1 µM; first compound 10 µM; stronger effect = lower value
Provide only the numeric value, understood in %.

Reference set, count: 2
molecule="C#Cc1c(F)ccc2cc(O)cc(-c3ncc4c(N5CC6CCC(C5)N6)nc(OCC56CCCN5CC(F)C6)nc4c3F)c12 (stereo not drawn) + CN1CCN(c2cc(C(=O)Nc3cc4cc(-c5cnn(C)c5)ccc4cn3)ccn2)CC1" endpoint_result=72.8
molecule="CCCS(=O)(=O)Nc1ccc(F)c(C(=O)c2c[nH]c3ncc(-c4ccc(Cl)cc4)cc23)c1F + CNC(=O)c1ccc(Nc2nc(OC3CCCC3)c3c(-c4ccc5nc(C)oc5c4)c[nH]c3n2)c(OC)c1" endpoint_result=17.4

## Task Fill in the blank: the reported viability, T/C of CC(CO)NC(=O)c1cc(-c2ccc(Cl)cc2)nn(-c2cnn(C)c2)c1=O (stereo not drawn) + CNC(=O)c1ccc(Nc2nc(OC3CCCC3)c3c(-c4ccc5nc(C)oc5c4)c[nH]c3n2)c(OC)c1 is ____.
## Result 33.3
